meta.source: patent EP4786492A1

Reported MFI values are given for each entry in this list.
molecular target: human DLL3 protein expressed on CHO-K1 recombinant cells (human DLL3 extracellular segment fused to EpCAM transmembrane and intracellular regions) (human) (UniProt Q9NYJ7); assay: FACS, CHO-K1 hDLL3 cells, 0.00128 nM antibody
Sequence (Q9NYJ7 other isoform, or with tags, fused parts or gaps limits assumed): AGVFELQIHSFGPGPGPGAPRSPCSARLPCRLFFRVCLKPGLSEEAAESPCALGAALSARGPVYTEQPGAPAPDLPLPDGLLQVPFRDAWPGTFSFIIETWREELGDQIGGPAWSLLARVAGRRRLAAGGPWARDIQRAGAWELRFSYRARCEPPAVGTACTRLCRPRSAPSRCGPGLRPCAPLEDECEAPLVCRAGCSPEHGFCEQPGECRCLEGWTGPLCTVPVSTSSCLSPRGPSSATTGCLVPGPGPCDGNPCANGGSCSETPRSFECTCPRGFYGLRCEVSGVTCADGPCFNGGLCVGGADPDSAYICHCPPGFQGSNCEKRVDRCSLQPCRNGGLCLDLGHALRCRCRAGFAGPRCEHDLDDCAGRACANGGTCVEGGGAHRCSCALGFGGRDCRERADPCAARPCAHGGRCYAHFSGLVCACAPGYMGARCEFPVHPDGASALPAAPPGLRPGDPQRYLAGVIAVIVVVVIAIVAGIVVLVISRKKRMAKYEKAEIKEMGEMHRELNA
Unit MFI implied. Number only.

Take a look at these entries with their results.
binder	MFI [MFI]
BI3 (antibody, human IgG1, kappa, V domains shown) VH: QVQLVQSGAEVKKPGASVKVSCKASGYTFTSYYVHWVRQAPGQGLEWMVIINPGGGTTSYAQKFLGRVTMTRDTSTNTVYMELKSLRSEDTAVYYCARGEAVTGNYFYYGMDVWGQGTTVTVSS VL: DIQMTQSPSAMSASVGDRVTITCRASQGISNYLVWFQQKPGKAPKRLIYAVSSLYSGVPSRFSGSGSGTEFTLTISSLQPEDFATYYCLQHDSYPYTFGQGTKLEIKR	310
Hab015VL5VH6a-hFc (scFv, part only; not given: scFv linker and human IgG1 Fc, V domains shown, not shown: another chain or arm of the molecule; a dimerising Fc or GST; small tags and cut ends) VL: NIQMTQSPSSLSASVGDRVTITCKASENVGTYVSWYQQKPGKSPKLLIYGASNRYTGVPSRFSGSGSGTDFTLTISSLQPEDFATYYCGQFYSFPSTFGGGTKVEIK VH: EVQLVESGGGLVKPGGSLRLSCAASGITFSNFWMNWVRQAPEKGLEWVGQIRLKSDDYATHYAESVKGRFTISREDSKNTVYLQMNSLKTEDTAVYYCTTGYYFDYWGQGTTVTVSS	122

Now for a further binder.
Query: Tell me measured MFI for Hab008L1H2a-hFc (scFv, part only; not given: VL-VH linker and human IgG1 Fc, V domains shown, not shown: another chain or arm of the molecule; a dimerising Fc or GST; small tags and cut ends) VL: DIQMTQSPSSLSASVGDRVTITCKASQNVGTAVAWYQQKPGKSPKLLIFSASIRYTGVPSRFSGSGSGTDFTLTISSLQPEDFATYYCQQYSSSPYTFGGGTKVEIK VH: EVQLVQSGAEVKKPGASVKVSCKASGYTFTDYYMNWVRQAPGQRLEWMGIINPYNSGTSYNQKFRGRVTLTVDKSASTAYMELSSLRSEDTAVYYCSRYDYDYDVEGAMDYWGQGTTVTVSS please.
Response: 109
